- Tested on: MDA-MB-231 breast
- Protocol Text: NCI-60 one-dose screen, 48 h
- Recorded Conditions: 10 µM unless noted
About 83,000 compounds went through this panel and 20% of them were active in at least one assay; those are over-represented in the sample as a whole. Active and inactive are the calls of the source. Rule for the calls: active = growth percent below 10; inactive = the rest.
Output constraint: value belongs to true for active, false for inactive

Data request: Outcome logged for N#C/C(C(=O)c1ccccc1)=C1/C(=O)Nc2ccccc21 in this assay:
Data returned: false

New cases:
Data request: Outcome logged for CC(=O)Nc1ccc(C=Nc2ccc3ccccc3c2)cc1 in this assay:
Data returned: false

Data request: Outcome logged for Cc1ccc(S(=O)(=O)Nc2ccccc2)cc1N in this assay:
Data returned: false

Data request: Outcome logged for COc1ccc(C(=O)CSc2nnc(-c3cc(-c4ccccc4)nc4ccccc34)o2)cc1 in this assay:
Data returned: false

Data request: Outcome logged for O=C(CCN1CCCCC1)c1ccc(Cl)cc1 in this assay:
Data returned: false

Data request: Outcome logged for CCOC(=O)COc1c(C)cc(SSc2cc(C)c(OCC(=O)OCC)c(C)c2)cc1C in this assay:
Data returned: false

Data request: Outcome logged for COc1ncc(-c2ccc3nccc(C#CCCCCC(=O)O)c3c2)cc1NS(=O)(=O)c1ccc(F)cc1F in this assay:
Data returned: false

Data request: Outcome logged for CCOC(=O)c1cc(C#N)n2ncc3ccccc3c12 in this assay:
Data returned: false

Data request: Outcome logged for O=C(CSc1nc2ccc([N+](=O)[O-])cc2[nH]1)Nc1ccc(F)c(Cl)c1 in this assay:
Data returned: false

Data request: Outcome logged for O=C(CCCCCCSc1nc(-c2ccc(Cl)cc2)cc(-c2ccc(Cl)cc2)n1)NO in this assay:
Data returned: false

* * *

- Tested on: K-562 leukemia
- Protocol Text: NCI-60 one-dose screen, 48 h
- Recorded Conditions: 10 µM unless noted
About 83,000 compounds went through this panel and 20% of them were active in at least one assay; those are over-represented in the sample as a whole. Activity calls are given as the source filed them. How the source made its calls: active means growth percent below 10; inactive means the rest.
Output constraint: value belongs to active, inactive

Data request: Outcome logged for COC(=O)c1c(C)[nH]c(/C=C2\N=C(c3ccc[nH]3)C=C2OC)c1C in this assay:
Data returned: active

New cases:
Data request: Outcome logged for C=C(C)[C@@H]1CC[C@]2(COC(=O)c3ccccc3C(=O)O)CC[C@]3(C)[C@H](CC[C@@H]4[C@@]5(C)CC[C@H](OC(=O)c6ccccc6C(=O)O)C(C)(C)[C@@H]5CC[C@]43C)[C@@H]12 in this assay:
Data returned: inactive

Data request: Outcome logged for COc1cc(C(=O)/C=C/c2c(-c3ccc(F)cc3)nc3sccn23)cc(OC)c1OC in this assay:
Data returned: inactive

Data request: Outcome logged for COc1cc(OC)c(/C=C/C(=O)c2c(N)cc(OC)cc2OC)c(OC)c1 in this assay:
Data returned: inactive

Data request: Outcome logged for c1coc2occoc=2o1 in this assay:
Data returned: inactive

Data request: Outcome logged for COc1ccc(NC(=S)NNc2ccc(-c3ccc(OC)c(OC)c3)nn2)cc1 in this assay:
Data returned: inactive

Data request: Outcome logged for O=C(CCCCCCSc1nc(-c2ccc(Cl)cc2)cc(-c2ccc(Cl)cc2)n1)NO in this assay:
Data returned: inactive

Data request: Outcome logged for O=C(NNc1ccc(-c2ccccc2)nn1)c1ccccc1 in this assay:
Data returned: inactive

Data request: Outcome logged for CCc1ccc(C2=C/C(=C/c3ccccc3)C(=O)N2CCc2ccc(S(N)(=O)=O)cc2)cc1 in this assay:
Data returned: inactive
